# tested_on: MelBSt (WT) (Salmonella enterica, UniProt P30878, L5M)
# assay_conditions: read-out: Melibiose displacement of D ^ 2 G (IC 50); 10 μM D2G, 20 mM NaCl, 100 mM KPi pH 7.5
pIC50: −log10 of the molar value.

compound | pIC50
OC[C@H]1O[C@H](OC[C@H]2OC(O)[C@H](O)[C@@H](O)[C@@H]2O)[C@H](O)[C@@H](O)[C@H]1O (stereo partly shown) | 2.58

* * *

# tested_on: MelBSt (WT) (Salmonella enterica, UniProt P30878, L5M/R141C)
# assay_conditions: read-out: Melibiose displacement of D ^ 2 G (IC 50); 10 μM D2G, 20 mM NaCl, 100 mM KPi pH 7.5
pIC50: −log10 of the molar value.

compound | pIC50
OC[C@H]1O[C@H](OC[C@H]2OC(O)[C@H](O)[C@@H](O)[C@@H]2O)[C@H](O)[C@@H](O)[C@H]1O (stereo partly shown) | 2.23

* * *

# tested_on: MelBSt (WT) (Salmonella enterica, UniProt P30878, L5M/R295C)
# assay_conditions: read-out: Melibiose displacement of D ^ 2 G (IC 50); 10 μM D2G, 20 mM NaCl, 100 mM KPi pH 7.5
pIC50: −log10 of the molar value.
property_label: pIC50

compound | tested_on | result_value
OC[C@H]1O[C@H](OC[C@H]2OC(O)[C@H](O)[C@@H](O)[C@@H]2O)[C@H](O)[C@@H](O)[C@H]1O (stereo partly shown) [melibiose] | MelBSt (WT) (Salmonella enterica, UniProt P30878, L5M/R295C) | 2.39
